Data provenance: patent US8084457B2

Quick reference: IC50 of the listed items.
- Assay Target: CDK2/CyclinA (Homo sapiens)
- Assay Explanation: Kinase assay determining CDK2/CyclinA activity
- Condition Details: read-out: CDK2 (activity range)

Past entries and their recorded results:
- Compound: "Oc1ccccc1-c1cc(NCCc2ccncc2)ncn1"
  IC50: "10 to 250 µM"
- Compound: "COc1ccccc1-c1cc(Nc2ccc(NC(=O)C3CC4CCC3C4)cc2)ncn1 (stereo not drawn)"
  IC50: "10 to 250 µM"
- Compound: "COc1ccc(-c2cc(Nc3ccc(NC(=O)c4ccc(N)cc4)cc3)ncn2)c(OC)c1"
  IC50: "0.001 to 1 µM"
- Compound: "COc1ccccc1-c1cc(Nc2ccc(NC(=O)NC(C)(C)C)cc2)ncn1"
  IC50: "1 to 10 µM"
- Compound: "COc1cccc(-c2cc(Nc3ccc(NC(=O)[C@@H]4CCCCN4)cc3)ncn2)c1OC"
  IC50: "10 to 250 µM"
- Compound: "Nc1ccc(C(=O)Nc2ccc(Nc3cc(-c4ccc(O)cc4)ncn3)cc2)cc1"
  IC50: "1 to 10 µM"

Q: What does the data say about its IC50? Entry: COc1ccccc1-c1cc(Nc2ccc(NC(=O)C3CCCN(C)C3)cc2)ncn1 (stereo not drawn)
A: 1 to 10 µM

Q: Now try COC(=O)c1ccc(Nc2cc(-c3ccccc3OC)ncn2)cc1 .
A: 0.001 to 1 µM

Q: Next up: COC(=O)CN(c1ccc(Nc2cc(-c3ccc(O)cc3)ncn2)cc1)S(=O)(=O)c1ccc(C)cc1
A: 0.001 to 1 µM

----------
# maps each entry to its pIC50
- Assay Target: CDK9/Cyclin T1 (Homo sapiens, UniProt P50750)
- Sequence (P50750 whole entry): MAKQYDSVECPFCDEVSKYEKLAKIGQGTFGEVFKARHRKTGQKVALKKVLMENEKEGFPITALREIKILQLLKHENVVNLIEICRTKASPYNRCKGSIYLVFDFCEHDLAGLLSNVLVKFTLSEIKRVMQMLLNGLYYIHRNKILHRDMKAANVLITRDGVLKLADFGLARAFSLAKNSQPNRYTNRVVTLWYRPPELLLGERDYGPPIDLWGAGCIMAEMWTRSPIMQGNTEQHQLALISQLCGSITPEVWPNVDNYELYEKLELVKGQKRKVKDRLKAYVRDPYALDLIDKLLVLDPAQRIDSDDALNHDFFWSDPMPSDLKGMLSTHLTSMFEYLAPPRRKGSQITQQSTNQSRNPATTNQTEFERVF
- Sequence (O60563 whole entry partner): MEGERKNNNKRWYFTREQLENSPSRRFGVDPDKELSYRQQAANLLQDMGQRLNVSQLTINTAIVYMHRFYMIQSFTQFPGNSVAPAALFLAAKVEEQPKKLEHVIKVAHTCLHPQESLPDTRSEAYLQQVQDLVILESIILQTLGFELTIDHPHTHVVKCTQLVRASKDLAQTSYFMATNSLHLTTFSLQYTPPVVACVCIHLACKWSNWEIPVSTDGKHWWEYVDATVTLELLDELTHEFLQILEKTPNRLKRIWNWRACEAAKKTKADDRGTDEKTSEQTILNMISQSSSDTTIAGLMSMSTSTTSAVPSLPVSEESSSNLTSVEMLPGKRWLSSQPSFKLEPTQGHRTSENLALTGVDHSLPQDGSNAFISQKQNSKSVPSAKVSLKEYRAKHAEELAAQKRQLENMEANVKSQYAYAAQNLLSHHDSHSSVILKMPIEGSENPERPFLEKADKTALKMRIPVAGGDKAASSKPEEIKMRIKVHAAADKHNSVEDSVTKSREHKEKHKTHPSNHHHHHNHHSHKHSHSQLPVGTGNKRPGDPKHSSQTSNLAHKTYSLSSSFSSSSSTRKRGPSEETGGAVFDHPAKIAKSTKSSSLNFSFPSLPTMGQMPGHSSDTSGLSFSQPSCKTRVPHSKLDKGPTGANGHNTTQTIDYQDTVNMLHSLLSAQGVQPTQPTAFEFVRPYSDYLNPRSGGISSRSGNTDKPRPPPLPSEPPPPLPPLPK
- Assay Explanation: Kinase assay using CDK9/Cyclin T1
- Condition Details: read-out: CDK9 (activity range)
pIC50: −log10 of the molar value.

Please review the following examples before continuing.
- Compound: "CCOc1ccccc1-c1cc(Nc2ccc(NC(=O)c3ccc(N)cc3)cc2)ncn1"
  Assay Target: "CDK9/Cyclin T1 (Homo sapiens, UniProt P50750)"
  Result: "6.00 to 9.00"
- Compound: "COc1ccccc1-c1cc(Nc2ccc(NC(=O)C3CC4CCC3C4)cc2)ncn1 (stereo not drawn)"
  Assay Target: "CDK9/Cyclin T1 (Homo sapiens, UniProt P50750)"
  Result: "6.00 to 9.00"
- Compound: "NC(=O)c1ccc(Nc2cc(-c3ccccc3OCc3ccccc3)ncn2)cc1"
  Assay Target: "CDK9/Cyclin T1 (Homo sapiens, UniProt P50750)"
  Result: "6.00 to 9.00"
- Compound: "Nc1ccc(C(=O)Nc2ccc(Nc3cc(-c4ccc(O)cc4)ncn3)cc2)cc1"
  Assay Target: "CDK9/Cyclin T1 (Homo sapiens, UniProt P50750)"
  Result: "5.00 to 6.00"
- Compound: "CCN(CC)CCC(=O)Nc1ccc(Nc2cc(-c3ccccc3OC)ncn2)cc1"
  Assay Target: "CDK9/Cyclin T1 (Homo sapiens, UniProt P50750)"
  Result: "6.00 to 9.00"
- Compound: "N[C@@H]1CCCC[C@H]1NC(=O)c1ccc(Nc2cc(-c3cccc(O)c3)ncn2)cc1 (racemic)"
  Assay Target: "CDK9/Cyclin T1 (Homo sapiens, UniProt P50750)"
  Result: "5.00 to 6.00"
- Compound: "CN(C)Cc1cccc(-c2cc(Nc3ccc(NC(=O)[C@@H]4CCCCN4)cc3)ncn2)c1"
  Assay Target: "CDK9/Cyclin T1 (Homo sapiens, UniProt P50750)"
  Result: "5.00 to 6.00"
- Compound: "COc1ccc(-c2cc(Nc3cccc(S(N)(=O)=O)c3)ncn2)cc1"
  Assay Target: "CDK9/Cyclin T1 (Homo sapiens, UniProt P50750)"
  Result: "6.00 to 9.00"
- Compound: "COc1ccccc1-c1cc(Nc2ccc(NS(=O)(=O)c3ccc(C)cc3)cc2)ncn1"
  Assay Target: "CDK9/Cyclin T1 (Homo sapiens, UniProt P50750)"
  Result: "6.00 to 9.00"
- Compound: "Nc1ccc(C(=O)Nc2ccc(Nc3cc(NCCO)ncn3)cc2)cc1"
  Assay Target: "CDK9/Cyclin T1 (Homo sapiens, UniProt P50750)"
  Result: "5.00 to 6.00"

Q: I am curious: what pIC50 value has been reported for Cc1ccc(S(=O)(=O)Nc2ccc(Nc3cc(-c4cccc(/C=C/C(=O)O)c4)ncn3)cc2)cc1 ?
A: 3.60 to 5.00

Q: Same again, this time with COc1ccccc1-c1cc(Nc2ccc(NC(=O)C34CC5CC(CC(C5)C3)C4)cc2)ncn1
A: 5.00 to 6.00

Q: Same lookup for CN1CCC(Nc2cc(Nc3ccc(NC(=O)C(C)(C)C)cc3)ncn2)CC1 , please.
A: 3.60 to 5.00

----------
IC50 overview
- Assay Target: CDK2/CyclinA (Homo sapiens, UniProt P24941)
- Assay Explanation: Kinase assay determining CDK2/CyclinA activity
- Condition Details: read-out: CDK2 (activity range)

Record excerpt, results attached:
- Compound: "COc1ccccc1-c1cc(Nc2ccc(NC(=O)c3ccc4[nH]cnc4c3)cc2)ncn1"
  IC50: "10 to 250 µM"
- Compound: "COc1ccccc1-c1cc(Nc2ccc(NC(=O)c3cn(C)cn3)cc2)ncn1"
  IC50: "1 to 10 µM"
- Compound: "COc1ccccc1-c1cc(Nc2ccc(NC(=O)[C@@H]3CCCCN3)cc2)ncn1"
  IC50: "1 to 10 µM"
- Compound: "CN1CCN(c2cc(Nc3ccc(NC(=O)C(C)(C)C)cc3)ncn2)CC1"
  IC50: "10 to 250 µM"
- Compound: "O=C(Nc1ccc(Nc2cc(-c3ccccc3Cl)ncn2)cc1)[C@@H]1CCCCN1"
  IC50: "10 to 250 µM"

Q: Returns the measured IC50 for the input compound. Input: CC(C)(C)C(=O)Nc1ccc(Nc2cc(NCCCO)ncn2)cc1
A: 10 to 250 µM

Q: Another: COc1ccccc1-c1cc(Nc2ccc(C(=O)NC3CCCNC3)cc2)ncn1 (stereo not shown)
A: 0.001 to 1 µM

Q: Same lookup for NC1CCCCC1NC(=O)c1ccc(Nc2cc(-c3ccccc3OCc3ccccc3)ncn2)cc1 (stereo not shown) , please.
A: 0.001 to 1 µM

Q: What do you get for COc1ccccc1-c1cc(Nc2ccc(NS(C)(=O)=O)cc2)ncn1 ?
A: 0.001 to 1 µM

Q: // query: COc1ccccc1-c1cc(Nc2ccc(C)c(NS(C)(=O)=O)c2)ncn1
A: 0.001 to 1 µM

----------
- Assay Target: CDK2/CyclinA (Homo sapiens, UniProt P24941)
- Assay Explanation: Kinase assay determining CDK2/CyclinA activity
- Condition Details: read-out: CDK2 (activity range)
Endpoint: IC50

- Smiles Record: "Cc1ccc(S(=O)(=O)Nc2ccc(Nc3cc(-c4ccc(O)cc4)ncn3)cc2)cc1"
  Assay Target: "CDK2/CyclinA (Homo sapiens, UniProt P24941)"
  Result: "0.001 to 1 µM"
- Smiles Record: "COc1ccccc1-c1cc(Nc2ccc(C(=O)NC(C)(C)C)cc2)ncn1"
  Assay Target: "CDK2/CyclinA (Homo sapiens, UniProt P24941)"
  Result: "1 to 10 µM"
- Smiles Record: "COc1ccccc1-c1cc(Nc2ccc(NC(=O)C3(NC(=O)OC(C)(C)C)CCCC3)cc2)ncn1"
  Assay Target: "CDK2/CyclinA (Homo sapiens, UniProt P24941)"
  Result: "10 to 250 µM"
- Smiles Record: "COc1ccccc1-c1cc(Nc2ccc(N)cc2)ncn1"
  Assay Target: "CDK2/CyclinA (Homo sapiens, UniProt P24941)"
  Result: "0.001 to 1 µM"
- Smiles Record: "COc1ncccc1-c1cc(Nc2ccc(NC(=O)[C@@H]3CCCCN3)cc2)ncn1"
  Assay Target: "CDK2/CyclinA (Homo sapiens, UniProt P24941)"
  Result: "1 to 10 µM"
- Smiles Record: "Cc1ccc(Nc2cc(-c3cccc(C(F)(F)F)c3)ncn2)cc1NS(C)(=O)=O"
  Assay Target: "CDK2/CyclinA (Homo sapiens, UniProt P24941)"
  Result: "10 to 250 µM"
- Smiles Record: "COc1ccccc1-c1cc(Nc2ccc(NC(=O)[C@@H](N)c3ccccc3)cc2)ncn1"
  Assay Target: "CDK2/CyclinA (Homo sapiens, UniProt P24941)"
  Result: "1 to 10 µM"
- Smiles Record: "COc1ccccc1-c1cc(Nc2cccc(NC(=O)C(C)(C)C)c2)ncn1"
  Assay Target: "CDK2/CyclinA (Homo sapiens, UniProt P24941)"
  Result: "1 to 10 µM"

Moving on to another compound below.
Q: Item: CS(=O)(=O)Nc1cccc(Nc2cc(-c3cccc(N)c3)ncn2)c1 Test system: CDK2/CyclinA (Homo sapiens, UniProt P24941) Read-out: IC50 Value: ?
A: 1 to 10 µM

----------
- Assay Target: CDK9/Cyclin T1 (Homo sapiens)
- Assay Explanation: Kinase assay using CDK9/Cyclin T1
- Condition Details: read-out: CDK9 (activity range)
pIC50: −log10 of the molar value.
Endpoint: pIC50

- Compound: "CC(C)Oc1ccccc1-c1cc(NCCc2ccncc2)ncn1"
  Endpoint: "pIC50"
  Result: "6.00 to 9.00"
- Compound: "COc1ccccc1-c1cc(Nc2ccc(NC(=O)CN(C)C)cc2)ncn1"
  Endpoint: "pIC50"
  Result: "6.00 to 9.00"
- Compound: "COc1ccccc1-c1cc(Nc2ccc(NC(=O)c3ccc4[nH]cnc4c3)cc2)ncn1"
  Endpoint: "pIC50"
  Result: "5.00 to 6.00"
- Compound: "COc1ccccc1-c1cc(Nc2ccc(NC(=O)[C@H]3CCCCN3)cc2)ncn1"
  Endpoint: "pIC50"
  Result: "6.00 to 9.00"
- Compound: "CCCS(=O)(=O)Nc1ccc(Nc2ncnc(-c3ccccc3OC)c2C)cc1"
  Endpoint: "pIC50"
  Result: "3.60 to 5.00"

Q: Dear colleague, I am looking for the recorded pIC50 of the following compound: NCCCOc1ccccc1-c1cc(Nc2ccc(NC(=O)c3ccc(N)cc3)cc2)ncn1
A: 6.00 to 9.00

Q: And COc1ncc(-c2cc(Nc3ccc(C(=O)N[C@@H]4CCCC[C@H]4N)cc3)ncn2)cn1 (racemic) ?
A: 3.60 to 5.00

Q: Would you kindly repeat that for COc1ccc(-c2cc(Nc3ccc(NC(=O)[C@@H]4CCCCN4)cc3)ncn2)cn1 ?
A: 5.00 to 6.00

Q: Quick one: COc1ccccc1-c1cc(N(C)c2ccc(NS(=O)(=O)c3ccc(C)cc3)cc2)ncn1
A: 5.00 to 6.00

Q: One more compound: COc1ccccc1-c1cc(Nc2ccc(NC(=O)[C@@H](N)c3ccccc3)cc2)ncn1
A: 6.00 to 9.00

Q: Request: CC(=O)c1ccc(-c2cc(Nc3ccc(NC(=O)[C@@H]4CCCCN4)cc3)ncn2)s1
A: 5.00 to 6.00

Q: Thanks! And COc1ccccc1-c1cc(Nc2ccc(NC(=O)C(N)c3ccc4ccccc4c3)cc2)ncn1 (stereo not shown) ?
A: 6.00 to 9.00

Q: Another compound: Cc1ccc(Nc2cc(-c3cccc(N)c3)ncn2)cc1NS(C)(=O)=O
A: 6.00 to 9.00
